Consider the following molecules; for each one, report its Bliss excess.
System: NALM-6 (B-Lymphoblastic Leukemia);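 further: after 72 h of two-drug dosing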
Protocol Text: Bliss excess, mean over the matrix (fraction); higher = more synergy

Query: Give me measured Bliss excess, please, for this molecule: C[C@@H](c1ccc2nccn2c1)n1nnc2ncc(-c3cnn(C)c3)nc21 [Savolitinib] + Cc1c2c(nn1C)CSCc1cc(n(C)n1)CSc1cc(c3ccccc3c1)OCCCc1c(C(=O)O)n(C)c3c-2c(Cl)ccc13 [AZD5991] (first compound max 1 µM, 7x7, partner max 1 µM)
Reply: -0.0141

Query: Provide one value: measured Bliss excess of C[C@@H](Nc1cc(F)cc(F)c1)c1cc(C(=O)N(C)C)cc2c(=O)cc(N3CCOCC3)oc12 [AZD8186] + CC(=O)c1c(C)c2cnc(Nc3ccc(N4CCNCC4)cn3)nc2n(C2CCCC2)c1=O [Palbociclib] (first compound max 10 µM, 7x7, partner max 10 µM)
Reply: 0.0084

Query: Provide one value: measured Bliss excess of NC1(C(=O)N[C@@H](CCO)c2ccc(Cl)cc2)CCN(c2ncnc3[nH]ccc23)CC1 [Capivasertib] + CCN(CCO)CCCOc1ccc2c(Nc3cc(CC(=O)Nc4cccc(F)c4)[nH]n3)ncnc2c1 [AZD2811] (first compound max 10 µM, 7x7, partner max 1 µM)
Reply: -0.0987

Query: Read the entry COc1nnc2ccc(N3CCC(c4ccc(OCCN5CCN(C)C(=O)[C@H]5C)cc4)CC3)nn12 [AZD5153] + Cn1cnc2c(F)c(Nc3ccc(Br)cc3Cl)c(C(=O)NOCCO)cc21 [Selumetinib] (first compound max 1 µM, 7x7, partner max 10 µM) and write its reported Bliss excess.
Reply: 0.0085

Query: Supply Bliss excess value. Item: Cc1cc2ncnn2cc1Nc1ncc2c(n1)n(C1CCOCC1)c(=O)n2C [AZD7648] + COc1cc([C@@H]2c3cc4c(cc3[C@@H](O[C@@H]3O[C@@H]5CO[C@@H](C)O[C@H]5[C@H](O)[C@H]3O)[C@H]3COC(=O)[C@H]23)OCO4)cc(OC)c1O [Etoposide] (first compound max 10 µM, 7x7, partner max 10 µM)
Reply: 0.0869

Query: Specify Bliss excess for C[C@@H](Oc1cc(-c2cnn(C3CCNCC3)c2)cnc1N)c1c(Cl)ccc(F)c1Cl [Crizotinib] + Cn1cnc2c(F)c(Nc3ccc(Br)cc3Cl)c(C(=O)NOCCO)cc21 [Selumetinib] (first compound max 10 µM, 7x7, partner max 10 µM) and stop.
Reply: -0.0149

Query: Given the molecule COc1nnc2ccc(N3CCC(c4ccc(OCCN5CCN(C)C(=O)[C@H]5C)cc4)CC3)nn12 [AZD5153] + C=CCn1c(=O)c2cnc(Nc3ccc(N4CCN(C)CC4)cc3)nc2n1-c1cccc(C(C)(C)O)n1 [AZD1775] (first compound max 1 µM, partner max 1 µM) , write its reported Bliss excess.
Reply: -0.0559
